target: human LAT1 (Homo sapiens); construct: expressed in transfected cells; assay: Inhibition of L-[14C]leucine uptake in HEK293-hLAT1 cells; type: cell-based; conditions: 1 μM L-[14C]leucine, 1 min, compounds at 10, 30, 100 μM
Sequence (Q01650 whole entry, one chain of several): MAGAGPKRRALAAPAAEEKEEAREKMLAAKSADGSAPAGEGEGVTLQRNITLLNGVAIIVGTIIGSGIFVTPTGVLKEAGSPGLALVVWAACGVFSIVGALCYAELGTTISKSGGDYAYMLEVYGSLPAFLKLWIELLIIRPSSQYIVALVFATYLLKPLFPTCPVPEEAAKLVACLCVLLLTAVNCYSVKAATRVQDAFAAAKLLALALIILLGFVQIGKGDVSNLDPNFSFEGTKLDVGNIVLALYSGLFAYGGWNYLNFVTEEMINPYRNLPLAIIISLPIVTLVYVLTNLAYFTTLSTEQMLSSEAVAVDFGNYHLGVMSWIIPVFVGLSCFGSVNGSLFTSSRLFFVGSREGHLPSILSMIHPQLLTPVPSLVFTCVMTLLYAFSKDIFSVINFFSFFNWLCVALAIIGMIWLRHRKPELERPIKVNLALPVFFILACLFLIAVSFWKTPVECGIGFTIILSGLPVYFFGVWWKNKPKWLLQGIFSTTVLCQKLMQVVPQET
result.type: Inhibition of LAT1-mediated L-[14C]leucine uptake (in words, rank order)

N[C@@H](Cc1ccccc1)C(=O)O [Phe, phenylalanine]: inhibit
C[C@](N)(Cc1ccccc1)C(=O)O [α-methyl-Phe, α-Methyl-L-phenylalanine, reference compound]: inhibit
N[C@@H](Cc1ccccc1F)C(=O)O [2-F-Phe]: 2-F-Phe = Phe
N[C@@H](Cc1ccccc1Br)C(=O)O [2-Br-Phe]: 2-Cl-Phe < 2-Br-Phe
N[C@@H](Cc1cccc(Cl)c1)C(=O)O [3-Cl-Phe]: 3-F-Phe < 3-Cl-Phe

Task item: Give me measured Inhibition of LAT1-mediated L-[14C]leucine uptake (in words, rank order), please, for this molecule: N[C@H](C(=O)O)c1ccccc1 [Phg, L-phenylglycine]
Reply: inhibit

Task item: Determine its reported Inhibition of LAT1-mediated L-[14C]leucine uptake (in words, rank order): N[C@@H](Cc1cccc(Br)c1)C(=O)O [3-Br-Phe, 3-Bromo-L-phenylalanine]
Reply: 3-Cl-Phe < 3-Br-Phe

Task item: Provide measured Inhibition of LAT1-mediated L-[14C]leucine uptake (in words, rank order) value, entry: N[C@]1(C(=O)O)CCc2ccccc2C1 [bicyclic-Phe]
Reply: inhibit

* * *

Molecular target: human LAT2 (Homo sapiens, UniProt Q9UHI5)
Construct: expressed in transfected cells
Sequence (Q9UHI5 1-535): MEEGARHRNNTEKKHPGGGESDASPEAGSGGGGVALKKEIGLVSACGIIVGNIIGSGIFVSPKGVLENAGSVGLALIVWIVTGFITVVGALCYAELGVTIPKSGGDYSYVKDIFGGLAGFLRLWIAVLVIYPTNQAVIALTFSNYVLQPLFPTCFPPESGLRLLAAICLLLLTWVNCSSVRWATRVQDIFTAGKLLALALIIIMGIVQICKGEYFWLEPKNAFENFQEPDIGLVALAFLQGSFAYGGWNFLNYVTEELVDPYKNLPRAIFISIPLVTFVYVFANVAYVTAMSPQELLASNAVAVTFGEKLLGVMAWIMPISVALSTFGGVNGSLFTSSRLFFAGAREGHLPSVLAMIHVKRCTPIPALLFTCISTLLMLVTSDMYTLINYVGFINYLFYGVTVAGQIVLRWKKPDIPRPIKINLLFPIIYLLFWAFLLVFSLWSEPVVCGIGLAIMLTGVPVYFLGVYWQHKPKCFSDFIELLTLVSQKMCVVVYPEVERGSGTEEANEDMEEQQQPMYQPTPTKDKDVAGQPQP
Sequence (P08195 1-529 partner): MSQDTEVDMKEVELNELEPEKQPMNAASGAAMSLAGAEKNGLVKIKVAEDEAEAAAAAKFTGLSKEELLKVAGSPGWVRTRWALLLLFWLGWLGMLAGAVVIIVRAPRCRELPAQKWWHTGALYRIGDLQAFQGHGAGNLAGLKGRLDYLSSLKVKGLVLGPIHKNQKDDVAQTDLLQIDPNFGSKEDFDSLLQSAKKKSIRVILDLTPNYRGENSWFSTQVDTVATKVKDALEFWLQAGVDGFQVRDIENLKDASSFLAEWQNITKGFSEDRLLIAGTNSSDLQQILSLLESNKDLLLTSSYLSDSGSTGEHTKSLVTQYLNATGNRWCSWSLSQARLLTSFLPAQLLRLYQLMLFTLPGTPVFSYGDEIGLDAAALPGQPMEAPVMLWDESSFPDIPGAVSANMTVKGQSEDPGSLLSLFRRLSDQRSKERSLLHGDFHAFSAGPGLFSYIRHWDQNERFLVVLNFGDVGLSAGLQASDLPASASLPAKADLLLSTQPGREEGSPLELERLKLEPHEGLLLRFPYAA
Assay: Inhibition of L-[14C]alanine uptake in HEK293-hLAT2 cells
Assay type: cell-based
Details: 1 μM L-[14C]alanine, 1 min, compounds at 10, 30, 100 μM
result.type: Inhibition of LAT2-mediated L-[14C]alanine uptake (in words, rank order)

Sample records with Inhibition of LAT2-mediated L-[14C]alanine uptake (in words, rank order):
N[C@@H](Cc1ccccc1I)C(=O)O: 2-I-Phe = Phe
N[C@@H](Cc1cccc(Br)c1)C(=O)O: 3-Cl-Phe < 3-Br-Phe
C[C@](N)(Cc1ccccc1)C(=O)O [α-methyl-Phe, α-Methyl-L-phenylalanine, reference compound]: minimal inhibition
N[C@H](C(=O)O)c1ccccc1: minimal inhibition
N[C@@H](Cc1cccc(Cl)c1)C(=O)O: 3-F-Phe < 3-Cl-Phe

Task item: Entry N[C@]1(C(=O)O)CCc2ccccc2C1 needs its Inhibition of LAT2-mediated L-[14C]alanine uptake (in words, rank order) filled in; supply it.
Reply: minimal inhibition

* * *

target: human LAT2 (Homo sapiens); construct: expressed in transfected cells; experiment: Inhibition of L-[14C]alanine uptake in HEK293-hLAT2 cells; assay type: cell-based; settings: L-[14C]alanine uptake, HEK293-hLAT2; mean ± S.E.M., n = 3–4; read-out: Ki (μM) LAT2
result.type: Ki (µM)

A: N[C@@H](Cc1ccccc1I)C(=O)O [2-I-Phe, 2-iodo-L-phenylalanine]
B: N[C@H](C(=O)O)c1ccccc1 [Phg, L-phenylglycine]
C: N[C@]1(C(=O)O)CCc2ccccc2C1 [bicyclic-Phe]
D: C[C@](N)(Cc1ccccc1)C(=O)O [α-methyl-Phe, α-Methyl-L-phenylalanine, reference compound]
Task item: Task field, ranking: reported Ki, descending order. Order the labels as requested and give them as your answer.
Reply: C, D, B, A
(C: 3750 µM, D: 1680 µM, B: 242 µM, A: 87.6 µM)

* * *

target: human LAT1 (Homo sapiens); construct: expressed in transfected cells; assay: Inhibition of L-[14C]leucine uptake in HEK293-hLAT1 cells; type: cell-based; conditions: LAT1 selectivity, LAT2 Ki over LAT1 Ki
result.type: Ki ratio (LAT2/LAT1)

Some solved entries appear below for comparison.
N[C@@H](Cc1ccccc1I)C(=O)O: 9.16
N[C@H](C(=O)O)c1ccccc1: 2.50

A: C[C@](N)(Cc1ccccc1)C(=O)O [α-methyl-Phe, α-Methyl-L-phenylalanine, reference compound]
B: N[C@@H](Cc1ccccc1)C(=O)O
C: N[C@]1(C(=O)O)CCc2ccccc2C1
Task item: Order by Ki ratio (LAT2/LAT1), ascending. Provide the labels, sequenced as the question asks.
Reply: B, A, C
(B: 2.53, A: 10.74, C: 47.98)
